// provenance: PubChem BioAssay (NCATS)

test system: NIH3T3; assay: Cytotoxic Profiling of Annotated Libraries Using Quantitative High-Throughput Screening (AID 1296008); settings: Five cell lines viability, CellTiter-Glo ATP luminescence, 48-72 h; hits give low values; note: nearly all actives have a fitted effect of over 60% in size; for max response: % is set by controls: 0 for no effect and ±100 for the full control effect
Inconclusive results are not listed.
Observation Type: max response (%)
Numbers only; they are read as %.

[[record]]
compound = "COC(=O)C1=CO[C@@H](O[C@@H]2O[C@H](CO[C@@H]3O[C@H](COC(=O)/C=C/c4cc(OC)c(O)c(OC)c4)[C@@H](O)[C@H](O)[C@H]3O)[C@@H](O)[C@H](O)[C@H]2O)[C@@H]2C(CO)=CC[C@H]12"
unit_string = "%"
readout_number = -2.41

[[record]]
compound = "C=C1OC2CC(C(=O)O)C=CC2NC1=O (stereo not drawn)"
unit_string = "%"
readout_number = 0.0418

[[record]]
compound = "CC(C)C(N)C(=O)OCCOCn1cnc2c(=O)[nH]c(N)nc21 (stereo not drawn)"
unit_string = "%"
readout_number = 1.39

[[record]]
compound = "COc1c2c(c(C)c3c1C(=O)OC3)O[C@@]1(C)CCC3(C(C)(C)O)OC(=O)CC[C@]3(C)[C@H]1C2 (stereo partly drawn)"
unit_string = "%"
readout_number = -21.1

[[record]]
compound = "C=C(C)C1Cc2cc(C(=O)OC3OC(CO)C(O)C(O)C3O)ccc2O1 (stereo not drawn)"
unit_string = "%"
readout_number = -5.26

[[record]]
compound = "COc1cc2ncnc(Nc3cccc(Cl)c3F)c2cc1OC(=O)N1CCN(C)C[C@H]1C"
unit_string = "%"
readout_number = -86.1

[[record]]
compound = "COC(=O)C1=CO[C@@H](O[C@@H]2O[C@H](CO)[C@@H](O)[C@H](O)[C@H]2O)[C@H]2[C@@H]1C=C[C@@]21C=C([C@H](C)O)C(=O)O1"
unit_string = "%"
readout_number = 3.5


Consider the additional compound presented here.
Give the reported value of max response for this record: C1CCC[C@H]2CCCN3CC[C@@H](CCCCCC[C@@H]4CCCN5CC[C@@H](CC1)O[C@@H]45)O[C@@H]23
2.62

* * *

molecular target: Cytochrome P450 2C9 (Homo sapiens); assay: Cytochrome P450 family 2 subfamily C member 9 (CYP2C9) small molecule antagonists: luciferase biochemical (cell-free) qHTS assay (AID 1645842); settings: P450-Glo CYP2C9 enzyme assay, luciferin luminescence; series mostly up to 57.4 µM; note: nearly all actives have a fitted effect of over 55% in size
Results filed as inconclusive are left out. Calls of active or inactive are those of the source. Calls follow the shape of the dose curve; as a rule, active = well fitted inhibition curve with a large enough effect in the repeat runs; inconclusive = weak or mixed curves; inactive = no such curve, though single readings can be large or run the other way.
Please reply with one of these outcomes: active, inactive

Solved entries (count: 6):
[[record]]
compound = "CN1CCc2nc(C(=O)N[C@@H]3C[C@@H](C(=O)N(C)C)CC[C@@H]3NC(=O)C(=O)Nc3ccc(Cl)cn3)sc2C1"
assigned_class = "inactive"

[[record]]
compound = "Nc1ccc(-c2cccc3c(=O)cc(N4CCOCC4)oc23)cc1"
assigned_class = "active"

[[record]]
compound = "O=C(COc1cccc2c(=O)[nH]ccc12)c1ccccc1"
assigned_class = "active"

[[record]]
compound = "COC(=O)N[C@@H](C)CNc1nccc(-c2cn(C(C)C)nc2-c2cc(Cl)cc(NS(C)(=O)=O)c2F)n1"
assigned_class = "inactive"

[[record]]
compound = "O=C(CCc1nnc2n(Cc3ccc(Cl)cc3)c(=O)c3ccccc3n12)NCCC1=CCCCC1"
assigned_class = "active"

[[record]]
compound = "COc1cccc(C(=O)N2CCN(C(=O)COc3cccc(C)c3)CC2)c1OC"
assigned_class = "active"


Assay result, entry C[C@@H]1CN(Cc2ncccn2)C[C@H]1c1nc2c(cnn2C2CCOCC2)c(=O)[nH]1 — outcome?
inactive

Assay result, entry CC(Oc1ccc2[nH]nc(/C=C/c3cnn(CCO)c3)c2c1)c1c(Cl)cncc1Cl (centres undefined) — outcome?
active

* * *

test system: CRL-7250; assay: Cytotoxic Profiling of Annotated Libraries Using Quantitative High-Throughput Screening (AID 1296008); settings: Five cell lines viability, CellTiter-Glo ATP luminescence, 48-72 h; note: nearly all actives have a fitted effect of over 60% in size
Records with an inconclusive call do not appear. Calls of active or inactive are those of the source. The call rests on the fitted dose curve; in most records, active means well fitted inhibition curve with a large enough effect; inconclusive means small, poorly fitted or top-dose-only effect; inactive means flat fitted curve, though single readings scatter.
Please reply with one of these outcomes: active, inactive

Solved entries (count: 8):
[[record]]
compound = "CC(=O)NCC(=O)N1C2CCC1c1cc(Nc3ncc(C(F)(F)F)c(NC4CCC4)n3)ccc12 (stereo unspecified)"
assigned_class = "active"

[[record]]
compound = "CCCCNc1ccc(-c2ccc(CN3CCOCC3)cn2)c(NC2CCC(O)CC2)c1 (stereo unspecified)"
assigned_class = "inactive"

[[record]]
compound = "O=S(=O)(NCC1CC1)c1ccc(Nc2nccc(N3CCCc4cc(O)ccc43)n2)cc1"
assigned_class = "active"

[[record]]
compound = "C[C@@H]1C(=O)OC[C@H]2C(C(=O)O)=C[C@@H]3CC(C)(C)C[C@]312"
assigned_class = "inactive"

[[record]]
compound = "Cc1cc(Nc2cc(N3CCN(C)CC3)nc(/C=C/c3ccccc3)n2)n[nH]1"
assigned_class = "active"

[[record]]
compound = "CCNCc1nc2c(N)nc3ccccc3c2n1CC(C)(C)O"
assigned_class = "inactive"

[[record]]
compound = "CC(C)(O)C1CCC(C)(C2CCC3(C)C4CCC5C(C)(C(=O)OC6OC(CO)C(O)C(O)C6O)C(O)CC(O)C56CC46CCC23C)O1 (stereo unspecified)"
assigned_class = "inactive"

[[record]]
compound = "Cc1cnc(NC(=O)Nc2cc(Br)c(C)cc2OCC2CNCCO2)cn1 (stereo unspecified)"
assigned_class = "active"


Assay result, entry CCc1cnn2c(NCc3ccc[n+]([O-])c3)cc(N3CCCCC3CCO)nc12 (stereo unspecified) — outcome?
active

Assay result, entry COc1cccc(C(=O)N2CCN(C(=O)COc3cccc(C)c3)CC2)c1OC — outcome?
inactive

Assay result, entry COc1ccc(CNC(=O)c2cc(-c3cncc(C)c3)ncc2-c2nccs2)nc1OC — outcome?
inactive

Assay result, entry CC1(C)CC[C@]2(C(=O)O[C@@H]3O[C@H](CO)[C@@H](O)[C@H](O)[C@H]3O)CC[C@]3(C)C(=CCC4[C@@]5(C)C[C@@H](O)[C@H](O)C(C)(C)C5[C@H](O)C[C@]43C)[C@@H]2[C@@H]1O (stereo partly specified) — outcome?
inactive

Assay result, entry COc1ccc(CN2C(=O)C(=O)c3cc(S(=O)(=O)N4CCC[C@H]4COc4cccnc4)ccc32)cc1 — outcome?
inactive

Assay result, entry Nc1nc2c(c(=O)[nH]1)C[C@@H](CCc1ccc(C(=O)N[C@@H](CCC(=O)O)C(=O)O)cc1)CN2 — outcome?
active

Assay result, entry COc1c2c(c(C)c3c1C(=O)OC3)OC1(C)CC(O)C34OC(OC)(CC(OC(C)=O)C3(C)C1C2)OC4(C)C (stereo unspecified) — outcome?
inactive

Assay result, entry COc1ccc(N(C)c2nc(C)nc3ccccc23)cc1 — outcome?
active

Assay result, entry CNC(=O)c1cccc(-c2ccc3c(N4CCOC[C@@H]4C)nc(N4CCOC[C@@H]4C)nc3n2)c1 — outcome?
active

Assay result, entry CC(c1ncncc1F)C(O)(Cn1cncn1)c1ccc(F)cc1F (stereo unspecified) — outcome?
inactive

Assay result, entry CC(=O)OCC1(O)CCC2C(COC3OC(CO)C(O)C(O)C3OC(=O)/C=C/c3ccc(O)cc3)=COC(OC(=O)CC(C)C)C21 (stereo unspecified) — outcome?
inactive

Assay result, entry O=C(NCC(O)CO)c1ccncc1Nc1ccc(I)cc1F (stereo unspecified) — outcome?
active

* * *

tested on: Zika virus NS2B-NS3 protease (unlinked complex); test: Primary screen GU Rhodamine qHTS for Zika virus inhibitors: Unlinked NS2B-NS3 protease assay (AID 1347159); conditions: Recombinant ZIKV NS2B-NS3 protease, Rhodamine110 substrate fluorescence; series mostly up to 107 µM; note: nearly all actives have a fitted effect of over 60% in size
Records with an inconclusive call do not appear. Activity calls are given as the source filed them. Calls come from the whole dose curve; as a rule, active = well fitted inhibition curve with a large enough effect; inconclusive = small, poorly fitted or top-dose-only effect; inactive = no such curve, though single readings can be large or run the other way.
Please reply with one of these outcomes: 1 for active, 0 for inactive

[[record]]
compound = "O=C(OC[C@@]1(O)CO[C@@H](O[C@H]2[C@H](Oc3ccc(O)cc3)O[C@H](CO)[C@@H](O)[C@@H]2O)[C@@H]1O)c1ccc(O)cc1"
test_target = "Zika virus NS2B-NS3 protease (unlinked complex)"
assigned_class = 0

[[record]]
compound = "CNC(=O)c1cc(Oc2ccc3nc(N[C@@H]4CCCC[C@H]4O)sc3c2)ccn1"
test_target = "Zika virus NS2B-NS3 protease (unlinked complex)"
assigned_class = 0

[[record]]
compound = "CCCCc1ccc(C(=O)Nc2cc(-c3ccc(Cl)cc3)nn2-c2ccc(Cl)cc2)cc1"
test_target = "Zika virus NS2B-NS3 protease (unlinked complex)"
assigned_class = 1

[[record]]
compound = "CCN1CCN(Cc2ccc(NC(=O)c3ccc(C)c(NC(=O)c4cncc(-c5cccs5)c4)c3)cc2C(F)(F)F)CC1"
test_target = "Zika virus NS2B-NS3 protease (unlinked complex)"
assigned_class = 0

[[record]]
compound = "COc1cccc2cc3c(c(O[C@@H]4O[C@H](CO[C@@H]5O[C@H](CO)[C@@H](O)[C@H](O)[C@H]5O)[C@@H](O)[C@H](O)[C@H]4O)c12)C(C)OC3=O (stereo not given in full)"
test_target = "Zika virus NS2B-NS3 protease (unlinked complex)"
assigned_class = 0

[[record]]
compound = "COc1cc(O)cc(C)c1C(=O)O[C@H]1[C@@H](OC(C)=O)[C@H](n2ccc(=O)[nH]c2=O)O[C@@H]1CO"
test_target = "Zika virus NS2B-NS3 protease (unlinked complex)"
assigned_class = 0

[[record]]
compound = "Cc1ccc(-c2c(C(=O)CF)n(CCCO)c3ncnc(N)c23)cc1"
test_target = "Zika virus NS2B-NS3 protease (unlinked complex)"
assigned_class = 0

[[record]]
compound = "Cn1c(=O)n(-c2ccc(C(C)(C)C#N)cc2)c2c3cc(C#Cc4cccnc4)ccc3ncc21"
test_target = "Zika virus NS2B-NS3 protease (unlinked complex)"
assigned_class = 0

[[record]]
compound = "CC(CO)C1CCC2(C)CC3C(CO)CC(O)C3C(C)(O)C/C=C/12 (stereo not given)"
test_target = "Zika virus NS2B-NS3 protease (unlinked complex)"
assigned_class = 0


# input for lookup
Assay result, entry C[C@@H]1CC[C@]2(C(=O)O[C@@H]3O[C@H](CO)[C@@H](O)[C@H](O)[C@H]3O)CC[C@]3(C)C(=CCC4[C@@]5(C)C[C@@H](O)[C@H](O)[C@](C)(C(=O)O)C5CC[C@]43C)[C@@H]2[C@]1(C)O (stereo not given in full) — outcome?
0
